assayed-target: murine METAP1 1-59 (mouse, UniProt Q8BP48)
assay-procedure: intrinsic Trp (W45) fluorescence quenching, 1:1 model
pKd: −log10 of the molar value.
quantity: pKd

| binder | pKd |
| --- | --- |
| Ac-MEDEDECPELVPIKEKPSGP-NH2 [Dr ZNG1 N-terminal peptide] | ~7.00 |

Q. Can you share its pKd? I mean this binder: Ac-AEEEYAEDCPELVPIETKNQE-NH2 [Mm ZNG1 N-terminal peptide]
A. ~7.00
